protocol_summary: TEAD-YAP interaction inhibition, primary screen, TEAD-YAP interaction inhibitor project, luminescence, HEK-TIYL cells (AID 1259422);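 note: 0% = median of test compound wells and 100% = reference inhibitor wells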
condition_description: TEAD-Gal4/YAP UAS-luciferase luminescence, at 9.12 µM
In all, about 640,000 compounds went through this assay and about 9,300 (1.5%) were called active. Cut-off read from the data, not from the text of the source: active = inhibition above about 32%; inactive = the rest. The sample as a whole holds a higher share of actives than the screen did.
A correct response names exactly one class from y for active, n for inactive

Worked examples follow.
compound	assigned_class
COc1cc(NS(=O)(=O)c2c(C)ccc3nsnc23)c2ncccc2c1	n
O=C(Nc1ccc(F)cc1)c1cc(-c2ccncc2)nc2ccccc12	n
Nc1cc(Oc2ccc3ccccc3c2)c(Cl)cc1[N+](=O)[O-]	n
Cc1ccc(NC(=O)C(=O)NCCC2CCCCN2S(=O)(=O)c2ccc(C)cc2)cc1 (stereo not drawn)	n
CCOC(=O)c1ccc(NC(=O)C2CC(=O)N(CCc3ccccc3)C(=Nc3ccccc3)S2)cc1 (stereo not drawn)	n

Input line: Please share the test call associated with "CCS(=O)(=O)N1CCN(c2cccc(Cl)c2)CC1" .
Output line: n

Input line: // outcome(item) with item = "Cc1ccc2nc(-c3ccncc3)cc(C(=O)Nc3ccc4c(c3)OCCO4)c2c1"
Output line: y

Input line: // outcome(item) with item = "COC(=O)c1c(C)oc2ccc(NS(=O)(=O)c3cccc4cccnc34)cc12"
Output line: n

Input line: Hi, do you know how "COc1cc(-c2cnn3c(N4CCOCC4)ccnc23)cc(OC)c1OC" came out in this test?
Output line: y

* * *

protocol_summary: TEAD-YAP interaction inhibition, primary screen, TEAD-YAP interaction inhibitor project, luminescence, HEK-TIYL cells (AID 1259422);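 note: 0% = median of test compound wells and 100% = reference inhibitor wells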
condition_description: TEAD-Gal4/YAP UAS-luciferase luminescence, at 9.12 µM
The whole screen tested about 640,000 compounds, of which about 9,300 (1.5%) were called active. Cut-off read from the data, not from the text of the source: active = inhibition above about 32%; inactive = the rest. For the sample, actives were picked, then their nearest neighbours and some compounds at random.
Would you mind answering with one of these outcomes? active, inactive

Completed entries (count: 6):
chemical_structure	assigned_class
COc1ccc(C(=O)N/C(=C/c2ccc([N+](=O)[O-])cc2)C(=O)Nc2cc(Cl)cc(Cl)c2)c(Cl)c1	inactive
Cc1ccc(S(=O)(=O)Oc2ccc(Br)cc2C=O)cc1	active
CCN(c1cccc(C)c1)S(=O)(=O)c1cc(C(=O)Nc2ccc(Oc3ccccc3)cc2)ccc1F	active
CCOc1cccc(NC(=O)c2ccc(F)c(S(=O)(=O)N(CC)c3cccc(C)c3)c2)c1	inactive
O=C(Nc1ccc(Oc2ccccc2)cc1)c1ccc(F)c(S(=O)(=O)N2CCc3ccccc3C2)c1	inactive
CCc1nc(SCC(N)=O)c2c3c(sc2n1)CCCC3	inactive

Input line: Fill in: this test's call for "CCN(Cc1ccccc1)S(=O)(=O)c1cc(C(=O)Nc2cccc(C)c2)ccc1F" is ___
Output line: active

* * *

protocol_summary: TEAD-YAP interaction inhibition, primary screen, TEAD-YAP interaction inhibitor project, luminescence, HEK-TIYL cells (AID 1259422);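 note: 0% = median of test compound wells and 100% = reference inhibitor wells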
condition_description: TEAD-Gal4/YAP UAS-luciferase luminescence, at 9.12 µM, hits give high values
Screen size: about 640,000 compounds; about 9,300 (1.5%) were called active. The sample holds actives, similar compounds and a random draw of the others, so the mix is not that of the screen.
measurement_type: inhibition (%)
Numbers only, in %.

compound	display_unit	test_value
c1ccc(Cn2cc(-c3cnn4c(NCCCN5CCOCC5)ccnc34)cn2)cc1	%	-1.52
COc1cc(Br)cc(/C=N/NC(=O)c2cc(-c3ccccc3)n[nH]2)c1O	%	15.7
COc1cccc(OCC(=O)N2CCC3(CC2)OCc2ccccc2O3)c1	%	-8.9
CC1=C(C(=O)Nc2ccc(Cl)cc2)C(c2cccc(Cl)c2)NC(=O)N1 (configuration not stated)	%	6.92

For the 7 compounds below, give their inhibition values.
1. CCOc1cccc(/C=N/NC(=O)c2ccc(C)nc2)c1O
2. CC1=C(C(=O)Nc2ccc(Cl)cc2)C(c2c(Cl)cccc2Cl)NC(=O)N1 (configuration not stated)
3. O=S(=O)(NCc1ccccc1)c1cccc(S(=O)(=O)NCc2ccccc2)c1
4. Cc1ccc(CC(=O)Nc2ccc(Cl)c([N+](=O)[O-])c2)cc1
5. CCOc1ccc(NC(=O)C2=C(C)NC(=O)NC2c2ccc(Cl)cc2)cc1 (configuration not stated)
6. O=C(CNC(=O)c1ccco1)N/N=C/c1ccc(F)cc1
7. Cc1cc(C)c(NC(=O)c2c(Cl)nc(C)c(Cl)c2C)c(C)c1

Output line:
[18.1, 37.4, 4.17, -2.28, 11, 2.91, -2.91]

Input line: Entry "CC/C(=N/Nc1nnc2c(n1)[nH]c1ccccc12)c1ccccc1" : reported inhibition = ?
Output line: 0.16

* * *

protocol_summary: TEAD-YAP interaction inhibition, primary screen, TEAD-YAP interaction inhibitor project, luminescence, HEK-TIYL cells (AID 1259422);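 note: 0% = median of test compound wells and 100% = reference inhibitor wells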
condition_description: TEAD-Gal4/YAP UAS-luciferase luminescence, at 9.12 µM, hits give high values
Among all 640,000 compounds or so, about 9,300 (1.5%) were called active. Many of the other results were omitted from the sample, so actives are more common in it than they were.
measurement_type: inhibition (%)
Answers are plain numbers, in %.

compound	display_unit	inhibition
COCCC(=O)NC(C)c1nnc2n1CCN(Cc1ccc(C)cc1)CC2 (stereo unspecified)	%	10.5

Please give inhibition, item by item, for the list that follows.
1. CCOC(=O)c1ccc(NC(=O)c2ccc(C#N)cc2F)cc1
2. CCn1nc(C)c(CN2CCOc3ccc(C(O)c4cccnc4)cc3C2)c1C (stereo unspecified)
3. COc1ccc(OC)c(C2/C(=C(\O)c3ccc(Br)cc3)C(=O)C(=O)N2CCCn2ccnc2)c1 (stereo unspecified)
4. CC(=O)Oc1ccc(C(=O)N(C(=O)c2ccc(OC(C)=O)cc2)c2cc(C)ccn2)cc1
5. CN(C)c1ccc(NC(=O)CSc2nc3cc4c(cc3cc2C#N)OCCO4)cc1
6. Cc1cccc(C)c1NS(=O)(=O)c1ccc2c(c1)oc(=O)n2C

Output line:
1: -1.23; 2: 36.6; 3: -4.36; 4: 47.4; 5: 66.1; 6: -6.37

Would you mind listing inhibition for each of the following compounds?
1. Cc1c(Cl)cccc1NC(=O)c1sc2nc3c(cc2c1N)C(=O)CCC3
2. COc1cc(C(=O)Nc2ncc(Cc3ccccc3Cl)s2)cc(OC)c1OC
3. O=C(Nc1cccc(Br)c1)c1ccccc1[N+](=O)[O-]
4. NC(=O)N/N=C/c1cn(-c2ccccc2)nc1-c1cc2ccccc2oc1=O
5. Nc1c(C(=O)N2CCCCC2)sc2nc3c(cc12)CCC3
6. Cc1cc(O)cc2c1C(=O)/C(=C/c1cc3ccccc3o1)O2
7. NC(=O)C(=O)N/N=C/c1cn(-c2ccccc2)nc1-c1cccs1

Output line:
1: 41.4; 2: 57.5; 3: -3.71; 4: 40.6; 5: -59.9; 6: 71.4; 7: -10.6

* * *

What inhibition was measured for each of the following?
protocol_summary: TEAD-YAP interaction inhibition, primary screen, TEAD-YAP interaction inhibitor project, luminescence, HEK-TIYL cells (AID 1259422);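 note: 0% = median of test compound wells and 100% = reference inhibitor wells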
condition_description: TEAD-Gal4/YAP UAS-luciferase luminescence, at 9.12 µM, hits give high values
About 9,300 (1.5%) of roughly 640,000 compounds were called active. This excerpt belongs to a sample that is enriched for actives.

Some compounds with recorded inhibition:
chemical_structure	inhibition
Cc1ccc(Nc2nc(-c3ccccn3)cs2)cc1C	49.9% (active)
COc1ccc(NC(=O)Cc2coc3ccc(C)cc23)cc1	-3.85% (inactive)
CC(=O)Oc1ccc2occ(C(=O)c3ccc(C)cc3)c2c1	41% (active)

Then this compound:
Input line: Please look up its inhibition: "CC(=O)Oc1ccc2occ(C(=O)c3cc4ccccc4o3)c2c1"
Output line: 53.6% (active)

* * *

protocol_summary: TEAD-YAP interaction inhibition, primary screen, TEAD-YAP interaction inhibitor project, luminescence, HEK-TIYL cells (AID 1259422);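 note: 0% = median of test compound wells and 100% = reference inhibitor wells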
condition_description: TEAD-Gal4/YAP UAS-luciferase luminescence, at 9.12 µM
About 9,300 (1.5%) of roughly 640,000 compounds were called active. No stated cut-off is given here; in the data, active means inhibition above about 32%; inactive means the rest. The entries come from a sample that favours actives as a whole.
Output constraint: value belongs to active, inactive

chemical_structure	assigned_class
CC(=O)Nc1ccc(CN2CCOCC2)cc1	inactive
CCNCC(=O)Nc1ccc(NC(C)=O)cc1	inactive
CC(=O)Nc1ccc2nc3c(cc2c1)[nH]c1ccccc13	active

Input line: Tell me the recorded outcome of this test for "Cc1cc2nn(-c3ccccc3)nc2cc1NC(=S)NC(=O)c1oc2ccccc2c1C" .
Output line: inactive

Input line: Please indicate how the test categorized "CC(=O)Nc1ccc(-c2nc(-c3ccccc3)c3cc(C)ccc3n2)cc1" .
Output line: inactive

* * *

protocol_summary: TEAD-YAP interaction inhibition, primary screen, TEAD-YAP interaction inhibitor project, luminescence, HEK-TIYL cells (AID 1259422);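 note: 0% = median of test compound wells and 100% = reference inhibitor wells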
condition_description: TEAD-Gal4/YAP UAS-luciferase luminescence, at 9.12 µM
Hit rate of the full screen: of about 640,000 compounds, about 9,300 (1.5%) were called active. Cut-off read from the data, not from the text of the source: active = inhibition above about 32%; inactive = the rest. This excerpt belongs to a sample that is enriched for actives.
Outcome (select one): Y for active, N for inactive

For orientation, consider the following solved cases.
molecule	assigned_class
Cc1ccc(S(=O)(=O)NC(C)Cc2cccs2)cc1 (stereo not drawn)	N
Cc1noc(C)c1-c1nc(NC2CC2)c2ncn(-c3ccsc3)c2n1	Y

Next up:
Input line: Lab log entry: "CNC(=O)c1ccc(Cl)c([N+](=O)[O-])c1" — outcome as called in the assay?
Output line: N
